# Tested on: PPARg:RXRa 270nM:90nM, anti-RXR (NR concentration 270 nM, RXRa partner concentration 90 nM)
# experiment-description: PBM binding z-score (relative to random genomic background probes); higher = stronger binding; sequences stand for … in GC…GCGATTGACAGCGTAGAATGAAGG
What PBM binding z-score was measured for each of the following?

Check out these entries, answers already filled in.
{"entry-sequence": "AGAATGAGGTTACCAAAGATCAGGGAAACGCTTG", "PBM binding z-score": 3.03}
{"entry-sequence": "CAAATTAGGTCAAAGGTCAAAGTCGAGCCAACCA", "PBM binding z-score": 11.2}
{"entry-sequence": "AGAACGAGGGCAATGAGTTGTTAGCACGGGTGGC", "PBM binding z-score": 0.817}
{"entry-sequence": "TTACCAAGGTGAAGGTCGTTGACCCCTCTGTAGA", "PBM binding z-score": 4.59}
{"entry-sequence": "TCATATAGGTAAATCCTAGGTGAAAGTCCGATCT", "PBM binding z-score": 2.16}

Would you mind listing PBM binding z-score for each of the following sequences?
1. CGAACTAGGGCATGAGTTGATAGCAAATGCCGAT
2. CGAACTAGGTAATCCAGGACAGTGAATACATTGA
3. TCATATAGGTAAATGCTAGGTTAAAGTCCGATCT
4. GGAACGAGGGCAAGTTGAGAGCAGAGTTTGATGG
5. CCGACTGGGGCATAGGGTTACCATAAGCCAGCCC
6. CCTAGTTGGTCAGGAGGTCACTCACCGGATATGA

Ans.
1: 4.13; 2: 0.982; 3: 2.22; 4: 1.34; 5: 4.29; 6: 3.43

Lab note: each sequence below needs its PBM binding z-score filled in.
1. GCTATTAGTTGAAAGGGCCACCGAATGATTCTCG
2. ATCTCAAGGTAAAGTTCAGTGAAAGATCGATAGA
3. CCGAGTAGCTTATGGGGCATTCAGGCAACGGTGA
4. TCTTGTAGATCAAACAGGTTAAGAAAGCCTGAGT

Ans.
1.6
3.4
-0.512
1.44

====

# System: PPARg:RXRa (NR concentration 180 nM, RXRa partner concentration 90 nM)
# experiment-description: PBM binding z-score (relative to random genomic background probes); higher = stronger binding; sequences stand for … in GC…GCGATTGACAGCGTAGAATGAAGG
measured-endpoint: PBM binding z-score

The examples below pair each entry with its known result.
{"entry-sequence": "ACTAGCAGGCCAAGGGGCACTCAAGATTAGTCCG", "experimental-value": 4.11}
{"entry-sequence": "ATCTCTAGGTAAAAGTTCAGTGCATCCCGAGGAT", "experimental-value": 8.17}
{"entry-sequence": "GCTCGGTGGACAAGGTCAGAGCTTTGTCCGTAGA", "experimental-value": 0.0962}
{"entry-sequence": "ACTGGCAGGCCAAGGGTCACTCAAGATTAGTCCG", "experimental-value": 5.21}
{"entry-sequence": "CCTACTGGGCCATCAAGTCATTGATATCAACGTT", "experimental-value": 0.723}
{"entry-sequence": "TCTTGTAGATCAGCAAGTTAAGAAAGCTGGCCAA", "experimental-value": -0.599}

Batch of 2 sequences: report PBM binding z-score for each.
1. GCGACTGGGGCAAAGCAGGTTAACATAAGGTTGG
2. CGCCCAAGGTCATAGGAGGTCAGTGAAGACAGAT

Ans.
1.62
5.24

====

# System: LXRb:RXRa (NR concentration 270 nM, RXRa partner concentration 90 nM)
# experiment-description: PBM binding z-score (relative to random genomic background probes); higher = stronger binding; sequences stand for … in GC…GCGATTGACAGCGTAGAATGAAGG
Param threshold (2) applies to PBM binding z-score; output class 1 when value >= threshold, class 0 when value < threshold.

{"entry-sequence": "CGAACGAGGGCATGAGATGATAGCAAATGCCGAT", "assigned-category": "class 0"}
{"entry-sequence": "CTTGCTAGGTCATGGTCAGCTAATCTACAGTATG", "assigned-category": "class 0"}
{"entry-sequence": "TCATATAGGTAAATGCTAGGTGGAAGTCCGATCT", "assigned-category": "class 0"}
{"entry-sequence": "CCTACTCGGCCAAGGTCATTGATCAGTCAAAGCA", "assigned-category": "class 1"}
{"entry-sequence": "TAGCCTAGGTCATGGGCCAATATACCACGCGAAC", "assigned-category": "class 1"}
{"entry-sequence": "ACTAGCAGGCTAAGGGTCACTCAAGATTAGTCCG", "assigned-category": "class 1"}
{"entry-sequence": "ATATCTAGGTTATCGGGTCATTCAGTTTGCGCAT", "assigned-category": "class 1"}
{"entry-sequence": "GCTACTGGGGCATCAGCAGGTTACCATAACTTAA", "assigned-category": "class 0"}

Qu. Determine whether this sequence has PBM binding z-score no lower than 2: `GATACAGGGTCAGCTAGAGGCCAGAGTCTGGAAA`
Ans. class 1

Qu. Kindly determine if PBM binding z-score recorded for `GCTGCTACGTCAGGTTGGTCAGCTAACGGGTACG` is above or exactly 2.
Ans. class 0

Qu. Check the entry `AGAACGAGGGCAATGAGTTGATAGCGCGGGTGGC` : does PBM binding z-score equal or exceed 2?
Ans. class 0

Qu. hey, is PBM binding z-score for this one >= 2? `GCGACTGGGGCAAAGCAGGTTTCCATAAGGTTGG`
Ans. class 0

Qu. Reported PBM binding z-score at or above 2? `ATCGAAAGGTGGTGAGGTGAGTATACAGAAAGGC`
Ans. class 0

Qu. // inclusive: PBM binding z-score at least 2? input: `AGAATGATGTTACCAAAGATCAGGGAAACGCTTG`
Ans. class 0

Qu. Assess whether reported PBM binding z-score for `TTACCACGGTGAGCTGAGGTCGTTGATCCAACTC` sits at 2 or higher.
Ans. class 0

Qu. Does the sequence `GCTGCTAGGACAGGTTGGTCAGCTAACGGGTACG` have recorded PBM binding z-score that is 2 or more?
Ans. class 0

Qu. Is PBM binding z-score for `TAGCCTAGGCCATTCAGGGGCCAGTATAGAAAGC` at or above 2?
Ans. class 0

Qu. API: above_or_equal(metric=PBM binding z-score, cutoff=2) for item `CCTATTAGTTGACCATAAGGGCAACCGGAGCTCG`
Ans. class 0

Qu. # bool: PBM binding z-score of `AGACAAAGTTCACTAGGTAACGTAAGATTCAGCT` >= 2
Ans. class 1

====

# Tested on: RARb:RXRa (NR concentration 270 nM, RXRa partner concentration 90 nM)
# experiment-description: PBM binding z-score (relative to random genomic background probes); higher = stronger binding; sequences stand for … in GC…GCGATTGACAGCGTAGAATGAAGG
measured-endpoint: PBM binding z-score
Give bare numbers.

Answered cases to consult:
{"entry-sequence": "CAAACTAGGTTACCGGAAGGTCAAAGTCCGCATG", "PBM binding z-score": 3.9}
{"entry-sequence": "CGTCAAAGTTCAACTTAGGTAACGTAAAGCACGC", "PBM binding z-score": 5.38}
{"entry-sequence": "TGTCAAAGTTAAAAGGTAACGTAAGTATCCACAC", "PBM binding z-score": 1.33}
{"entry-sequence": "GTTAGCAGGCCATTTGGGTCACTCAATGACGGGC", "PBM binding z-score": 1.52}
{"entry-sequence": "AGAATGATGTTATTAAGATCAGGGAATTGCGGTC", "PBM binding z-score": -0.333}
{"entry-sequence": "GCTATCAGTTGAAAGGGCAACCGAATGATTCTCG", "PBM binding z-score": 2.07}

Here is another sequence to look at.
Qu. Give reported PBM binding z-score value for `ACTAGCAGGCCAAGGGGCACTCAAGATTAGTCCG`
Ans. 1.09

====

Hi there, I'd appreciate the recorded PBM binding z-score for every entry that follows.
# System: LXRa:RXRa (NR concentration 270 nM, RXRa partner concentration 90 nM)
# experiment-description: PBM binding z-score (relative to random genomic background probes); higher = stronger binding; sequences stand for … in GC…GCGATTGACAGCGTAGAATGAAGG

{"entry-sequence": "ATACCAAGGTGATCGTGATGTCGTTGATACTAAC", "experimental-value": 0.0372}
{"entry-sequence": "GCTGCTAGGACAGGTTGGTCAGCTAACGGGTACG", "experimental-value": -0.909}
{"entry-sequence": "TCTTGTAGATCAAACGTTAAGAAAGCCGAAGCCT", "experimental-value": 0.363}

Quick request: PBM binding z-score for each listed item, please.
1. CCGACTGGGCCAAGGTTACCATAACGCACAGCCA
2. GGATCGAGGGCAAAGTTGATAGCATCTGTCGACG
3. ATCGAAAGGTCGACGAGGTCAGTATACACCGTTT
4. CCTACTGGGCCAAGAAAGGTCATTGATTCAGTGA
5. CATACAGGGCCAGCTAGGCCAGAGTAGGGACGGC
6. TCTAGCAGGCCAGAGGGTCACTCGAGAGGTACGG
7. ATACCAAGGTGATCGTGAGGTCGTGGATACTAAC

Ans.
[0.358, 1.21, 5.03, 4.19, -0.822, 0.659, 1.27]

Dear reader, for each entry below, please note its PBM binding z-score.
1. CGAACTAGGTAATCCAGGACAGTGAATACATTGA
2. GGAACGAGAGCAAGTTGATAGCAGAGTTTGATGG

Ans.
1. -0.39
2. -0.766
